testedSystem: FGFR3 enzyme (Homo sapiens (Human))
Sequence (P22607 23-806): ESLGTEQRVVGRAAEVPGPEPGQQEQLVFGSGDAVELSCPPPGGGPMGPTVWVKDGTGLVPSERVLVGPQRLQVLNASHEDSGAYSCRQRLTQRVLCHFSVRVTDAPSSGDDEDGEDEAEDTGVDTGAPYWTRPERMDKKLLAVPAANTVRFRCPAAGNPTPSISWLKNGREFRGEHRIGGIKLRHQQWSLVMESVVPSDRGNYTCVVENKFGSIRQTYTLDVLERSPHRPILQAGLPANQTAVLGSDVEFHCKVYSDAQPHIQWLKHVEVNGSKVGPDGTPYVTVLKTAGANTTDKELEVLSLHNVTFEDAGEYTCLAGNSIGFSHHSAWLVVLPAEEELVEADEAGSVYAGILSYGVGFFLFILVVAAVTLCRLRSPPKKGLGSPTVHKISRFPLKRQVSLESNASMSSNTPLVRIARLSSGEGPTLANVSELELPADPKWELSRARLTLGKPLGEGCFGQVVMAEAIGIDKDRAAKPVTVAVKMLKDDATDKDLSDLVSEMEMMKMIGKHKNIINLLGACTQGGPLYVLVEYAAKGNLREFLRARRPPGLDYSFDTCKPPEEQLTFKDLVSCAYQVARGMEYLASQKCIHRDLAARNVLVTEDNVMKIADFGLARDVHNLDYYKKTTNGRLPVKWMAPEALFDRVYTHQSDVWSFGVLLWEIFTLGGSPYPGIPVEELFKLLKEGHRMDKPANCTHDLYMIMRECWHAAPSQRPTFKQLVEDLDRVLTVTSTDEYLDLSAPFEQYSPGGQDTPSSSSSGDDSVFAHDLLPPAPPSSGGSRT
measurementProtocol: FGFR Enzymatic Assay (peptide phosphorylation, FRET), FGFR3
Assay type: biochemical
assaySetup: IC50 ratio showing FGFR3 selectivity; pre-incubated for 4 hours

compound	FGFR1/FGFR3
CCn1cnc(-c2cc3c(cn2)CN(c2c(F)c(OC)cc(OC)c2F)C(=O)C32CC2)c1 [Example 53]	>5
COc1cc(OC)c(F)c(N2Cc3cnc(-c4cn(C)nc4C)cc3N(Cc3cnn(C4CC4)c3)C2=O)c1F [Example 124]	>10
COc1cc(OC)c(F)c(N2Cc3cnc(-c4cn(C)nc4C)cc3N(Cc3cc(C)no3)C2=O)c1F [Example 35]	>5
CCN1C(=O)N(c2c(F)c(OC)cc(OC)c2F)Cc2cnc(-c3ccc(C(=O)NC4CC4)nc3)cc21 [Example 176]	>10
COc1cnc(N2C(=O)N(c3c(F)c(OC)cc(OC)c3F)Cc3cnc(-c4cn(C)nc4C)cc32)cn1 [Example 112]	>3
